system: muscle progenitors (hMP) from DMD hiPSC or WT hiPSC; test: Myotube assay: myogenic activity (total myotube area per well); type: cell-based, human; settings: Homo sapiens, 72 h; myotube assay, compounds incubated 3 days; read-out: MA (normalized Myotube Area, efficacy)
Entries annotated with measured Emax

Example entries begin here.
CSc1cc(Oc2ccnc3[nH]c(=O)cnc23)ccc1NC(=O)Nc1ncc(C(C)(C)C)s1 [(ah)] = ≥ 75%
CNC(=O)c1ccc(Oc2cccc(NC(=O)Nc3cc(C(C)(C)C)nn3-c3ccccc3)c2)cn1 [(ab)] = 50 to 75%
CCOC(=O)Nc1cc(Oc2ccc(NC(=O)Nc3ncc(C(C)(C)C)s3)c(SC)c2)ccn1 [(df)] = ≥ 75%
CC(C)(C)c1cc(NC(=O)Nc2ccc(Oc3ccnc4[nH]c(=O)cnc34)c(OC(F)(F)F)c2)n(-c2ccccc2)n1 [(cp)] = 50 to 75%
CSc1cc(Oc2ccnc3[nH]c(=O)cnc23)ccc1NC(=O)Nc1cc(C(C)(C)C)nn1-c1ccc2ncccc2c1 [(bm)] = ≥ 75%
CC(C)(C)c1cc(NC(=O)Nc2ccc(Oc3ccnc4[nH]c(=O)cnc34)cc2F)n(-c2ccc3ncccc3c2)n1 [(n)] = ≥ 75%
CC(C)(C)c1cc(NC(=O)Nc2ccc(Oc3ccnc4c3CCC(=O)N4)c3ccccc23)on1 [(dg)] = ≥ 75%

Turning now to a further compound:
Provide only the value of recorded Emax for CSc1cc(Oc2ccnc(NS(C)(=O)=O)c2)ccc1NC(=O)Nc1cc(C(C)(C)C)no1 [(dl)]
≥ 75%

----------
Entries annotated with measured Emax
tested on: muscle progenitors (hMP) from DMD hiPSC or WT hiPSC; test: Myotube assay: myogenic activity (total myotube area per well); assay type: cell-based, human; conditions: Homo sapiens, 72 h; myotube assay, compounds incubated 3 days; read-out: MA (normalized Myotube Area, efficacy)

CSc1cc(Oc2ccnc3[nH]c(=O)cnc23)ccc1NC(=O)Nc1nnc(-c2ccccc2)s1 = ≥ 75%

Provide only the value of recorded Emax for CSc1cc(Oc2cccc3[nH]c(=O)cnc23)ccc1NC(=O)Nc1cc(C(C)(C)C)nn1-c1ccccc1
25 to 50%

Provide only the value of recorded Emax for Cc1cc(Oc2ccnc3[nH]c(=O)cnc23)ccc1NC(=O)Nc1cc(C(C)(C)C)nn1-c1ccccc1
≥ 75%

Provide only the value of recorded Emax for CSc1cc(NC(=O)Nc2cc(C(C)(C)C)nn2-c2ccccc2)ccc1Oc1ccnc2[nH]c(=O)cnc12
≥ 75%

Provide only the value of recorded Emax for CC(C)(C)c1cc(NC(=O)Nc2ccc(Oc3ccnc4[nH]c(=O)cnc34)nc2)n(-c2ccccc2)n1
25 to 50%

Provide only the value of recorded Emax for CSc1cc(Oc2ccnc3c2CCCN3)ccc1NC(=O)Nc1cc(C(C)(C)C)nn1-c1ccccc1
≥ 75%

Provide only the value of recorded Emax for CCOC(=O)Nc1cc(Oc2ccc(NC(=O)Nc3cc(C(C)(C)C)nn3-c3ccccc3)c3ccccc23)ccn1
≥ 75%

Provide only the value of recorded Emax for CC(C)(C)c1cc(NC(=O)Nc2ccc(Oc3ccnc4[nH]c(=O)cnc34)cc2F)[nH]n1
25 to 50%

----------
System: muscle progenitors (hMP) from DMD hiPSC or WT hiPSC
Assay: Myotube assay: myogenic activity (total myotube area per well)
Type: cell-based, human
Details: Homo sapiens, 72 h; myotube assay, compounds incubated 3 days; read-out: MA (normalized Myotube Area, efficacy)
Procedure: An in vitro assay for assessing the efficacy of compounds for use in treating, ameliorating, delaying, curing and/or preventing a disease or condition associated with muscle cells and/or satellite cells is described in example 78. Herein, the generation of myotubes and satellite cells after adding a compound to a myotube assay workflow is assessed. Said myotube assay workflow is derived from wild-type or DMD human induced pluripotent stem cells (WT hiPSC or DMD hiPSC). […]
Entries annotated with measured Emax

CC(C)(C)c1cc(NC(=O)Nc2ccc(Oc3ccnc4[nH]c(=O)cnc34)cc2)n(-c2ccccc2)n1 [(s)] = 50 to 75%
CCOC(=O)Nc1cc(Oc2ccc(NC(=O)Nc3cc(C(C)(C)C)on3)c(SC)c2)ccn1 [(di)] = ≥ 75%
CNC(=O)c1cc(Oc2ccc(NC(=O)Nc3cc(C(C)(C)C)nn3-c3ccccc3)c(SC)c2)ccn1 [(br)] = ≥ 75%

Turning now to a further compound:
Given CSc1cc(Oc2ccnc3[nH]c(=O)cnc23)ccc1NC(=O)Nc1cc(C(C)(C)C)nn1CCN(C)C [(bg)] , report its Emax on muscle progenitors (hMP) from DMD hiPSC or WT hiPSC.
≥ 75%
